System: CU-ACC1
PROTOCOL: AC50 viability; higher = less potent
EXPERIMENTAL SETUP: 48 h
PROPERTY LABEL: log10 of AC50 viability (log10 of the value in µM)
Answers are given as log10 of AC50 viability in µM.

Sample answers from the record:
Cc1ccc(C(=O)Nc2cccc(C(F)(F)F)c2)cc1Nc1nc(-c2cccnc2)nc2c1cnn2C: 1.37
CN1CCN(C2CCN(C(=O)Nc3cc(Oc4ccc(NC(=O)C5(C(=O)Nc6ccc(F)cc6)CC5)c(F)c4)ccn3)CC2)CC1: 1.47
CCC(=C/[C@H](C)C/C=C/C(C)=C/[C@@H](C)C(=O)[C@@H](C)[C@H](O)[C@@H](C)C/C(C)=C/C(=O)O)/C=C/[C@@H]1OC(=O)C=C[C@@H]1C: -2.98

Notebook: Cc1cc(I)ccc1Nc1c(C(=O)NOCC2CC2)cc(F)c(F)c1F , log10 of AC50 viability read as 1.22

Notebook: Cc1nc2cc(C(=O)N3CCC4(CC3)CC(=O)c3c(cnn3C(C)C)C4)ccc2[nH]1 , log10 of AC50 viability read as 1.42

Notebook: CN(C)CCN1C(=O)c2cccc3cc(N)cc(c23)C1=O , log10 of AC50 viability read as 1.42

Notebook: CC[C@@H]1C(=O)N(C)c2cnc(Nc3ccc(C(=O)NC4CCN(C)CC4)cc3OC)nc2N1C1CCCC1 , log10 of AC50 viability read as 1.32

Notebook: Cc1cc(Nc2ncnc3ccc(-c4ccc(CNCC[S+](C)(=O)[O-])o4)cc23)ccc1Oc1ccn2ncnc2c1 , log10 of AC50 viability read as 1.37

Notebook: C[C@@H]1CC2C3C[C@H](F)C\4=C\C(=O)\C=C/[C@]4(C)[C@@]3(F)[C@@H](O)C[C@]2(C)[C@@]1(OC(=O)C5=CC=CO5)C(=O)SCF (stereo partly specified) , log10 of AC50 viability read as 1.62

Notebook: Cc1c[nH]c2ncnc(N3CCC(CN)(C(=O)Nc4cccc(OC(=O)N(C)C)c4)CC3)c12 , log10 of AC50 viability read as 1.02

Notebook: Fc1ccc(C(OCCN2CCN(CCCc3ccccc3)CC2)c2ccc(F)cc2)cc1 , log10 of AC50 viability read as 1.22
